The origin of these recorded values is patent US20120022054A1.

Test system: NL4-3 strain of HIV-1
Experimental Protocol: Multiple cycle infection assay of CAp24 antigen production
Assay type: cell-based
Applied Conditions: Human immunodeficiency virus 1, NL43, SUP-T1, 96 h, multiple cycle infection with NL4-3 virus, SupT1, MT4 or PBMC, MOI 0.01, day 4 and day −6 post-infection; threshold below 5 μM; read-out: EC50 for antiviral activity (50% inhibition of CA p24 production)
Measured Endpoint: EC50

# annotated cases, reported EC50 shown
In [3]: df
Out[3]:
                                   compound  measured_endpoint  value_reported
0  CN(Cc1ccccc1N1CCN(c2ccc(C(F)(F)F)cn2)CC1)C(=O)CCCNCc1ccc(F)cc1               EC50          < 5 µM
1   COc1ccc(F)cc1CN(C)C(=O)CCCSc1ccc(CO)cc1               EC50          < 5 µM
2    COc1ccccc1CN(C)C(=O)CCCSc1ccc2ccccc2c1               EC50          < 5 µM
3  COc1ccc(F)cc1CN(C)C(=O)CCCn1ccc2cc(F)ccc21               EC50          < 5 µM
4        COc1ccccc1N(C)C(=O)CCCSc1ccc(F)cc1               EC50          < 5 µM

Query :: May I ask what EC50 has been recorded for COc1ccc(SCCCC(=O)N(C)c2nccc3ccccc23)cc1 ?
Result :: < 5 µM

Query :: May I ask what EC50 has been recorded for CN(Cc1ccccc1-c1ccco1)C(=O)CCCSc1ccc(F)cc1 ?
Result :: < 5 µM

Query :: May I ask what EC50 has been recorded for CN(C(=O)CCCn1ccc2cc(F)ccc21)c1cccc2ccccc12 ?
Result :: < 5 µM

Query :: May I ask what EC50 has been recorded for COc1ccccc1CN(C)C(=O)CCCSc1ccc2ccccc2n1 ?
Result :: < 5 µM

Query :: May I ask what EC50 has been recorded for CCOC(=O)c1cc(F)ccc1SCCCC(=O)N(C)c1cccc(F)c1 ?
Result :: < 5 µM

Query :: May I ask what EC50 has been recorded for COc1ccccc1CN(C)C(=O)CCCSc1ccc(O)cc1 ?
Result :: < 5 µM
